- Test system: MCF10A
- protocol-text: 5+ nucleoli phenotype percent effect (relative to siNT 0% and siKIF11 100%); higher = more cells with five or more nucleoli
- details: 20 nM; 72 h
readout-label: 5+ nucleoli phenotype percent effect (%)
State just the number; it will be interpreted in %.

Entry CAGUGGCCAGAGCCCUGCAGUG [hsa-miR-3677-5p] has what 5+ nucleoli phenotype percent effect?
-20.3

I would be grateful if you could share the reported 5+ nucleoli phenotype percent effect for UUACACAGCUGGACAGAGGCA [hsa-miR-4672] .
-34

Name the recorded 5+ nucleoli phenotype percent effect for CUUAUGCAAGAUUCCCUUCUAC [hsa-miR-491-3p] .
-51.5

Entry UGAGGUAGUAGUUUGUGCUGUU [hsa-let-7i-5p] : reported 5+ nucleoli phenotype percent effect = ?
23.9

Data request, read-out 5+ nucleoli phenotype percent effect, for CAAAGUGAUGAGUAAUACUGGCUG [hsa-miR-3609]
2.01

Request the reported 5+ nucleoli phenotype percent effect associated with GUGGGGGAGAGGCUGUC [hsa-miR-1275]
-28.2

Return reported 5+ nucleoli phenotype percent effect; argument: UCCUGCCACCUCCUCCGCAG [hsa-miR-6727-3p]
-26.4

Any idea what 5+ nucleoli phenotype percent effect was measured for CGGGGUCGGCGGCGACGUG [hsa-miR-7704] ?
9.03

Form field: reported 5+ nucleoli phenotype percent effect of CCUGCUGGUCAGGAGUGGAUACUG [hsa-miR-3692-5p]
6.3

Need 5+ nucleoli phenotype percent effect, item AGAAGGAAAUUGAAUUCAUUUA [hsa-miR-1252]
32.3

Returns the measured 5+ nucleoli phenotype percent effect for the input sequence. Input: AAAAACCACAAUUACUUUUGCACCA [hsa-miR-548t-3p]
39.3

Param item = AGGCUGGGCUGGGACGGA [hsa-miR-4505] ; retrieve measured 5+ nucleoli phenotype percent effect.
21.9

Sample GCAGUGGCUCUGAAAUGAACUC [hsa-miR-5693] — what was its 5+ nucleoli phenotype percent effect?
-12.8

// query 5+ nucleoli phenotype percent effect value for entry UUGUGGGGUUGGAGAGCUGGCUG [hsa-miR-6796-5p]
-31.5

Quick one: 5+ nucleoli phenotype percent effect for UGGGAUGAGGGAUUGAAGUGGA [hsa-miR-5187-5p] ?
24.8

I'd like to know its 5+ nucleoli phenotype percent effect. The sequence in question is AGAAGUAACUACGGUUUUUGCA [hsa-miR-548ao-5p]
27.5

Suppose we examine the sequence AGGCGCACCCGACCACAUGC [hsa-miR-6722-5p] ; what 5+ nucleoli phenotype percent effect value has been reported?
-18.7

Endpoint output: 5+ nucleoli phenotype percent effect of UGCAGGACCAAGAUGAGCCCU [hsa-miR-1286] . Value?
1.93

Any idea what 5+ nucleoli phenotype percent effect was measured for CUCUGGGAAAUGGGACAG [hsa-miR-4314] ?
-5.34

Fill blank: measured 5+ nucleoli phenotype percent effect of the sequence CUCCAGAGGGAUGCACUUUCU [hsa-miR-525-5p] is ____.
-22.1

Entry CUGAAGUGAUGUGUAACUGAUCAG [hsa-miR-573] : reported 5+ nucleoli phenotype percent effect = ?
-8.65

Which value of 5+ nucleoli phenotype percent effect has been reported for UACUAACUGCAGAUUCAAGUGA [hsa-miR-4637] in the records?
24.1

What does the data say about its 5+ nucleoli phenotype percent effect? Entry: ACUUAAACGUGGAUGUACUUGCU [hsa-miR-302a-5p]
65.8

Quick one: 5+ nucleoli phenotype percent effect of GAGUGCCUUCUUUUGGAGCGUU [hsa-miR-515-3p] ?
9.82

Value source: the supplement of paper PMC10899765
